- experiment notes: FRG1 promoter luciferase signal modulators, primary screen, FRG1 inhibition for FSHD, cell-based, C2C12 myotubes, firefly/Renilla luciferase, luminescence (AID 1084)
- assay conditions: higher = more signal, called active from +8 up or from −8 down
assay readout: z-score
// print number alone

The measured z-score associated with COCCOC(=O)N1C(=O)[C@@]2(c3cc(C#CCCO)ccc31)[C@H](C(=O)N1CCCCCCC1)[C@H]1C(=O)O[C@H](c3ccccc3)[C@H](c3ccccc3)N1[C@@H]2c1ccc(O)cc1 reads -2.05

The measured z-score associated with O=C(NCc1ccccc1)c1ccc(Br)cc1[N+](=O)[O-] reads -0.567

The measured z-score associated with C=CCc1cccc([C@H]2N[C@H](C(=O)O)CC[C@@H]2C)c1 reads -0.204

The measured z-score associated with CC[C@@H]1C=C(C(=O)O)[C@H](c2ccccc2)N1S(=O)(=O)c1ccc([N+](=O)[O-])cc1 reads -2.22

The measured z-score associated with CO[C@H]1COC(=O)CC=C[C@H](C)[C@@H](OC)COC(=O)CC=C[C@@H]1C reads -1.12

The measured z-score associated with O=C1O[C@@H](c2ccccc2)[C@@H](c2ccccc2)N2[C@@H](c3ccc(OCCO)cc3)[C@]3(C(=O)Nc4ccc(C#CCCO)cc43)[C@@H](C(=O)N3CCN(c4ncccn4)CC3)[C@H]12 reads 0.126

The measured z-score associated with Cc1ccc(S[C@]2(C(=O)NCCN3CCOCC3)CC(=O)N(C3Cc4ccccc4C3)[C@@H]2c2ccc(CO)cc2I)cc1 reads -0.974

The measured z-score associated with O=C1O[C@H](c2ccccc2)[C@H](c2ccccc2)N2[C@H]1[C@@H](C(=O)Nc1nc3ccccc3s1)[C@]1(C(=O)Nc3ccc(C#CC4=CCCCC4)cc31)[C@H]2c1ccccc1OCCO reads 0.59

The measured z-score associated with C#CCCCON=C1C[C@@H](O)[C@@H](O)[C@@H]2[C@@H]3C(=O)N(Cc4ccc5c(c4)OCO5)C(=O)[C@@H]3CC[C@@H]12 reads -0.177

The measured z-score associated with O=C(N1CCCCC1)[C@@]1(CCS(=O)(=O)c2ccccc2)N=C(c2ccc(OCCCO)cc2)O[C@H]1c1ccccc1 reads -0.144

The measured z-score associated with [N-]=[N+]=NCc1ccccc1[C@H]1OC(c2ccc(OCCCO)cc2)=N[C@@]1(Cc1ccccc1N=[N+]=[N-])C(=O)NCc1ccccc1 reads -1.35

The measured z-score associated with CC(C)C[C@@H]1NC(=O)[C@H](CC(C)C)NC(=O)[C@@]23C(=O)N[C@@H](Cc4ccccc4)C2[C@H](C)[C@@]2(C)O[C@H]2C3/C=C/CC/C=C/CNC1=O (stereo partly specified) reads -0.298

The measured z-score associated with C[C@H]1C2[C@H](Cc3ccccc3)NC(=O)[C@]23C(=O)N[C@H](Cc2ccccc2)C(=O)N[C@@H](Cc2ccccc2)C(=O)NC/C=C\C/C=C/C3[C@@H]2O[C@]12C (stereo partly specified) reads -0.293

The measured z-score associated with CC(=O)NCCCC[C@@H]1NC(=O)[C@@H]2C[C@H](C(=O)NCCCCCCN(C)C)[C@H](c3ccc(O)cc3)N2C1=O reads 4.01

The measured z-score associated with CCOC(=O)[C@H]1C/C=C/C[C@H](C(=O)OCC)C(=O)O[C@H]2[C@@H](OC)O[C@H](CO)[C@@H](OC(=O)Nc3ccc(Br)cc3)[C@@H]2OC1=O reads 0.892

The measured z-score associated with CC(=O)NCCCC[C@@H]1NC(=O)[C@H]2C[C@@H](C(=O)NCCCCCCN(C)C)[C@@H](c3cccc(OCCO)c3)N2C1=O reads 2.92

Numbers sourced from PubChem BioAssay.
